The reported measurements were obtained from patent US20040242650A1.

# ASSAY NAME: Pharmacokinetic profiles of patients on the extended dosing regimen (plasma, LCMS/MS, day 15)
# Format: in vivo
# CONDITION DESCRIPTION: human, plasma, po, 200 mg, 200 mg QD oral, day 15, plasma, N=2; read-out: Cmin
VALUE TYPE: concentration at 15 day (ng/mL)

[[record]]
compound = "COc1ccc(S(=O)(=O)Nc2cccnc2Nc2ccc(O)cc2)cc1"
measurement_unit = "ng/mL"
reported_result = 500


---

# ASSAY NAME: Pharmacokinetic profiles of patients on the extended dosing regimen (plasma, LCMS/MS, day 15)
# Format: in vivo
# CONDITION DESCRIPTION: human, plasma, po, 200 mg, 200 mg QD oral, day 15, N=2; AUC0-24
VALUE TYPE: AUC (ng·h/mL)

[[record]]
compound = "COc1ccc(S(=O)(=O)Nc2cccnc2Nc2ccc(O)cc2)cc1"
reported_result = 60200


---

# ASSAY NAME: Pharmacokinetic profiles of patients on the extended dosing regimen (plasma, LCMS/MS, day 15)
# Type: in vivo
# CONDITION DESCRIPTION: human, plasma, po, 25 mg, 25 mg BID oral, day 15, plasma, N=2; read-out: Tmax
VALUE TYPE: Tmax (h)

[[record]]
compound = "COc1ccc(S(=O)(=O)Nc2cccnc2Nc2ccc(O)cc2)cc1"
value_type = "Tmax"
reported_result = 2.3


---

# ASSAY NAME: Pharmacokinetic profiles of patients on the extended dosing regimen (plasma, LCMS/MS, day 15)
# Format: in vivo
# CONDITION DESCRIPTION: human, plasma, po, 100 mg, 100 mg BID oral, day 15, plasma, N=3; read-out: Tmax
# Method: A total of 43 patients were enrolled in the study. […] In evaluating the pharmacokinetic profiles of the patients, plasma samples were collected pre-dose and over 6 hours following dosing on day 15. Plasma concentrations of N-[2-[(4-hydroxyphenyl)amino]-3-pyridyl]-4-methoxybenzenesulfonamide were determined by a validated LCMS/MS assay. […]
VALUE TYPE: Tmax

[[record]]
compound = "COc1ccc(S(=O)(=O)Nc2cccnc2Nc2ccc(O)cc2)cc1"
value_type = "Tmax"
reported_result = "2.3 h"


---

# ASSAY NAME: Pharmacokinetic profiles of patients on the extended dosing regimen (plasma, LCMS/MS, day 15)
# Format: in vivo
# CONDITION DESCRIPTION: human, plasma, po, 25 mg, 25 mg QD oral, day 15, plasma, N=4
# Experimental: A total of 43 patients were enrolled in the study. […] In evaluating the pharmacokinetic profiles of the patients, plasma samples were collected pre-dose and over 6 hours following dosing on day 15. Plasma concentrations of N-[2-[(4-hydroxyphenyl)amino]-3-pyridyl]-4-methoxybenzenesulfonamide were determined by a validated LCMS/MS assay. […]
VALUE TYPE: Cmax (ng/mL)

[[record]]
compound = "COc1ccc(S(=O)(=O)Nc2cccnc2Nc2ccc(O)cc2)cc1"
reported_result = 1700


---

# ASSAY NAME: Pharmacokinetic profiles of patients on the extended dosing regimen (plasma, LCMS/MS, day 15)
# Type: in vivo
# CONDITION DESCRIPTION: human, plasma, po, 100 mg, 100 mg QD oral, day 15, plasma, N=3; read-out: Cmin
VALUE TYPE: concentration at 15 day (ng/mL)

[[record]]
compound = "COc1ccc(S(=O)(=O)Nc2cccnc2Nc2ccc(O)cc2)cc1"
value_type = "concentration at 15 day"
measurement_unit = "ng/mL"
reported_result = 200

